biological target: 53BP1-BRCT (Homo sapiens)
Sequence (Q12888 1702-1972): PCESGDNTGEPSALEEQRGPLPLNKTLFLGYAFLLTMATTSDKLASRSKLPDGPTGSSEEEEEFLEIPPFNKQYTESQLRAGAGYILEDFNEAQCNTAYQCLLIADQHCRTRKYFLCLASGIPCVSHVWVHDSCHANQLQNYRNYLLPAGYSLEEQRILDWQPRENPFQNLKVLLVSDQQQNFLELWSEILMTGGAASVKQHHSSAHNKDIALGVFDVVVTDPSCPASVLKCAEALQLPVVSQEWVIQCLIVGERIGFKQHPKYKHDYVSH
Non-standard residues stand in square brackets, D forms with d. Residues, ends and D or L forms follow the SMILES beside them. pS = N[C@@H](COP(=O)(O)O)C(=O)O
Would you mind telling me the reported Ki of each entry?
Enter the number, and then the unit.

Form: molecule = NC(=O)CC[C@H](NC(=O)[C@@H](N)COP(=O)(O)O)C(=O)N[C@@H](CCC(=O)O)C(=O)N[C@@H](Cc1ccc(O)cc1)C(=O)O [pSQEY-OH] (H-[pS]QEY-OH) ; Ki = 7.5 µM

Continue with the next molecule.
Form: molecule = NC(=O)CC[C@H](NC(=O)[C@@H](N)COP(=O)(O)O)C(=O)N[C@@H](CCC(=O)O)C(=O)N[C@@H](Cc1ccc(O)cc1)C(N)=O [pSQEY-NH2] (H-[pS]QEY-NH2) ; Ki = 25 µM
